# inhibition listing for each entry below
target: G/T mismatch-specific thymine DNA glycosylase (Homo sapiens); details: Compound Concentration 10.0 uM, Hit No;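 also: human TDG cleavage of quenched duplex DNA oligonucleotides coupled to APE1, strand release read as fluorescence at 594 nm, inhibition of TDG activity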
Description: Inhibition of TDG by quantifying inhibition of TDG-mediated cleavage and dissociation of quenched duplex DNA oligonucleotides, measured as fluorescence at 594 nm. To generate a functional strand incision and increase turn-over this assay is coupled to APE1.
value-kind: inhibition

INSERT INTO results (molecule, assay_system, value_kind, reading) VALUES
  ('O=C(NC[C@@H]1[C@H]2CN(C(=O)OCc3cc(C(F)(F)F)cc(C(F)(F)F)c3)C[C@@H]12)c1ccc2[nH]nnc2c1', 'G/T mismatch-specific thymine DNA glycosylase (Homo sapiens)', 'inhibition', '43.8%'),
  ('CCCCC[C@H](O)/C=C/[C@@H]1[C@@H](C/C=C\CCCC(=O)O)[C@@H](O)C[C@H]1O', 'G/T mismatch-specific thymine DNA glycosylase (Homo sapiens)', 'inhibition', '25.5%'),
  ('CN(C(=O)c1cnn2cccnc12)c1cc2c(cc1N1CCOCC1)C(=O)N(C[C@@H](F)C(C)(C)O)C2', 'G/T mismatch-specific thymine DNA glycosylase (Homo sapiens)', 'inhibition', '39.8%'),
  ('CC1(C)[C@H]2C[C@H](C/C=C\CCCC(=O)O)[C@@H](NC(=O)c3csc4ccc(O)cc34)[C@@H]1C2', 'G/T mismatch-specific thymine DNA glycosylase (Homo sapiens)', 'inhibition', '20.1%'),
  ('N[C@](CC1c2ccccc2Oc2ccccc21)(C(=O)O)[C@H]1C[C@@H]1C(=O)O', 'G/T mismatch-specific thymine DNA glycosylase (Homo sapiens)', 'inhibition', '24.2%'),
  ('Cc1csc(NC(=O)c2cc(F)cc(Oc3cncnc3)c2)n1', 'G/T mismatch-specific thymine DNA glycosylase (Homo sapiens)', 'inhibition', '5.04%'),
  ('Cc1c(NC(=O)c2cc(C(N)=O)nc3cc(F)ccc23)c(C(F)(F)F)nn1Cc1ccc(C#N)cc1', 'G/T mismatch-specific thymine DNA glycosylase (Homo sapiens)', 'inhibition', '35.6%'),
  ('c1ccc(C2CN3CCC2CC3)cc1 (stereo not given)', 'G/T mismatch-specific thymine DNA glycosylase (Homo sapiens)', 'inhibition', '22.8%'),
  ('FC(F)(F)Oc1ccc(-c2ccc3nnc(C(F)(F)F)n3c2)cc1', 'G/T mismatch-specific thymine DNA glycosylase (Homo sapiens)', 'inhibition', '-4.99%'),
  ('CNC1(C)C2CCC(C2)C1(C)C (stereo not given)', 'G/T mismatch-specific thymine DNA glycosylase (Homo sapiens)', 'inhibition', '10.2%');

----------
target: Uracil-DNA glycosylase (Homo sapiens) (UniProt P13051); settings: Compound Concentration 10.0 uM, Hit No;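 also: UNG excision on a quenched double-stranded DNA oligo probe, with APE1 added for strand incision and turnover, read as fluorescence at 594 nm as strands separate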
Sequence (P13051 whole entry): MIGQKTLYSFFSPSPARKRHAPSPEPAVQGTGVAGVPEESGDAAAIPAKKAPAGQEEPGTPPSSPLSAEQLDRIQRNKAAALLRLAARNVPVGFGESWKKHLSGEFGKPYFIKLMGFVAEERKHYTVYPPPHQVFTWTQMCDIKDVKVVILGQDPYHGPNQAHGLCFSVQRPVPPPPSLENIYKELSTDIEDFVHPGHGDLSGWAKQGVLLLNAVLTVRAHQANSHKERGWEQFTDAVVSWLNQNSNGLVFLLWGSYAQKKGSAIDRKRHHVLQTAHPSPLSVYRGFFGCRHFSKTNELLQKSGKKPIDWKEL
Description: Inhibition of UNG by quantifying inhibition of UNG-mediated cleavage and dissociation of quenched duplex DNA oligonucleotides, measured as fluorescence at 594 nm. To generate a functional strand incision and increase turn-over this assay is coupled to APE1.
# inhibition listing for each entry below
value-kind: inhibition (%)

INSERT INTO results (structure_smiles_string, value_kind, reading) VALUES
  ('Cc1cc(Cn2cnc3c2C[C@@H](C(=O)O)N(C(=O)C(c2ccccc2)c2ccccc2)C3)ccc1N(C)C', 'inhibition', -2.82),
  ('CSc1cccnc1N1CCN(Cc2nc3ccccc3[nH]2)CC1', 'inhibition', 0.535),
  ('O=C(Nc1ccc(S(=O)(=O)Nc2nccs2)cc1)C(c1ccccc1)c1ccccc1', 'inhibition', 3.78),
  ('O=C(NCc1ncc(C(F)(F)F)cc1Cl)c1ccc2c(c1)C1(CCS(=O)(=O)CC1)[C@@H](C1CC1)N2S(=O)(=O)c1ccc(F)cc1', 'inhibition', -1.13),
  ('CN(C)S(=O)(=O)c1ccc(NC(=S)N2CCC(C(O)(c3ccccc3)c3ccccc3)CC2)cc1', 'inhibition', -7.47),
  ('C[C@]1(O)C[C@@H](c2nc(-c3ccc4ccc(-c5ccccc5)nc4c3)c3c(N)nccn32)C1', 'inhibition', 7.32),
  ('CO[C@@H](C)c1c(Nc2ccc([C@H](N(C)C(=O)C3CCS(=O)(=O)CC3)C(F)(F)F)cc2)cnc2cc(Cl)nn12', 'inhibition', -1.74),
  ('C[C@H](N)Cn1ccc2cc(F)c(Cl)cc21', 'inhibition', -6.21),
  ('CC(C=CC1=C(C)CCCC1(C)C)=CC=CC(C)=CC(=O)O', 'inhibition', -0.014),
  ('CN(C)C(=O)Cn1cc(-c2nc(C3(c4ccc(-c5cnc(N)nc5)cc4)CC3)no2)cn1', 'inhibition', 1.06),
  ('CCOC(=O)N1CCC(NS(=O)(=O)c2ccc(NC(=O)c3ccccc3C)c3ccccc23)CC1', 'inhibition', -2.92);

----------
target: N-glycosylase/DNA lyase (Homo sapiens) (UniProt O15527); conditions: Compound Concentration 10.0 uM, Hit No;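 also: OGG1 cleavage of a quenched duplex DNA oligonucleotide, coupled to APE1 for strand incision, read as fluorescence at 594 nm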
Sequence (O15527 whole entry): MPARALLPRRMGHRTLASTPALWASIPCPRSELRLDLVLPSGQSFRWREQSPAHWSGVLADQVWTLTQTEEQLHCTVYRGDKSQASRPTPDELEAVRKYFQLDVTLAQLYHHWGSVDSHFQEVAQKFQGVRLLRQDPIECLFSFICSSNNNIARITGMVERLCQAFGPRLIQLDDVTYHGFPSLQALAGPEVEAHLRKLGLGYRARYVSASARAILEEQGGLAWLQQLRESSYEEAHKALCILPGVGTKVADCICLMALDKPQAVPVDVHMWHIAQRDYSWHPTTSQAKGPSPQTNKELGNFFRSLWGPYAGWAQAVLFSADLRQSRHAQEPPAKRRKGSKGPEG
Description: Inhibition of OGG1 by quantifying inhibition of OGG1-mediated cleavage and dissociation of quenched duplex DNA oligonucleotides, measured as fluorescence at 594 nm. To generate a functional strand incision and increase turn-over this assay is coupled to APE1.
value-kind: inhibition (%)

INSERT INTO measurements (structure_smiles_string, value_kind, unit_of_measure, reading) VALUES
  ('COc1ccccc1Nc1nc(-c2nn(Cc3c(F)cc(OCCCO)cc3F)c3ccccc23)ncc1OC', 'inhibition', '%', 4.46),
  ('O=C(O)C1CN(Cc2ccc(OCc3ccc(Cl)c(Cl)c3)cc2)C1', 'inhibition', '%', -0.266),
  ('CCC(=O)NC[C@@H]1C[C@H]1c1cccc2c1CCO2', 'inhibition', '%', 1.29),
  ('CN(C)CCN(Cc1ccc(-c2ccc(CNCCc3ccccc3)cc2)cc1)C(=O)CCC1CCCC1', 'inhibition', '%', 3.9),
  ('N=C(N)NCCC[C@H](NC(=O)COCC(c1ccccc1)c1ccccc1)C(=O)O', 'inhibition', '%', -5.82),
  ('Cc1ccccc1N1CCN(S(=O)(=O)C[C@]23CC[C@H](C[C@@H]2NC(=O)[C@@H](N)CCS(C)(=O)=O)C3(C)C)CC1', 'inhibition', '%', -1.3),
  ('Cc1[nH]cnc1CN1CCc2c(c3ccccc3n2C)C1=O', 'inhibition', '%', 1.31),
  ('O=C1C[C@@H]2OCC=C3CN4CC[C@]56c7ccccc7N1[C@H]5[C@H]2[C@H]3C[C@H]46', 'inhibition', '%', -7.16);

----------
biological target: Endonuclease 8-like 1 (Homo sapiens) (UniProt Q96FI4); conditions: Compound Concentration 10.0 uM, Hit No;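 also: fluorescence at 594 nm from quenched duplex DNA oligonucleotides released by NEIL1 cleavage and strand separation, reported as reduction of this enzyme activity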
Sequence (Q96FI4 whole entry): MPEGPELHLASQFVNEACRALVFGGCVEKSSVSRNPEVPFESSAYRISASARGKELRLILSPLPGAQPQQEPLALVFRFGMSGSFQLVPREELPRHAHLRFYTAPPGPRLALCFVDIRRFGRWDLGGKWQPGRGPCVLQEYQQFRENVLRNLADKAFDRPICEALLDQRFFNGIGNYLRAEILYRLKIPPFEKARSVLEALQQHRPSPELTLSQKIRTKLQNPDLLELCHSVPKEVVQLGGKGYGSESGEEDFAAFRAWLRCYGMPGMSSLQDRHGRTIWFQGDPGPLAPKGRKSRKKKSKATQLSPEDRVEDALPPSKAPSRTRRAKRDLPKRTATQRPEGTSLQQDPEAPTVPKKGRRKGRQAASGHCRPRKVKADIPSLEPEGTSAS
Description: Inhibition of NEIL1 by quantifying inhibition of NEIL1-mediated cleavage and dissociation of quenched duplex DNA oligonucleotides, measured as fluorescence at 594 nm.
# inhibition listing for each entry below
value-kind: inhibition (%)

INSERT INTO assay_data (compound, assay_system, reading) VALUES
  ('CCCCCCCCCCCCCCC[C@@H](O)[C@@H](N)COP(=O)(O)O', 'Endonuclease 8-like 1 (Homo sapiens) (UniProt Q96FI4)', 6.76),
  ('CCN1CCC[C@H]1CNC(=O)c1c(OC)ccc(Br)c1OC', 'Endonuclease 8-like 1 (Homo sapiens) (UniProt Q96FI4)', -9.25),
  ('CC[C@H](Nc1c(C#N)c(-c2ccc(-c3cccc(C)c3F)cc2)nc2cnccc12)C(=O)O', 'Endonuclease 8-like 1 (Homo sapiens) (UniProt Q96FI4)', 1.86),
  ('O=C(O)CCC/C=C\CC1C(O)CC(O)C1/C=C/C(O)COc1cccc(Cl)c1 (stereo unspecified)', 'Endonuclease 8-like 1 (Homo sapiens) (UniProt Q96FI4)', -0.0556),
  ('CN1CC[C@@]23CCCC[C@@H]2[C@@H]1Cc1ccc(O)cc13', 'Endonuclease 8-like 1 (Homo sapiens) (UniProt Q96FI4)', -2.06),
  ('CCc1ccc(OCc2ccccc2C(=O)Nc2ccc3nc(C)cc(N)c3c2)cc1', 'Endonuclease 8-like 1 (Homo sapiens) (UniProt Q96FI4)', -4.06),
  ('Oc1c(CN2CCN(c3ccccn3)CC2)cc(Cl)c2cccnc12', 'Endonuclease 8-like 1 (Homo sapiens) (UniProt Q96FI4)', -9.54),
  ('Cc1ccccc1C(=O)Nc1ccc(C(=O)N2CCCC(O)c3cc(Cl)ccc32)c(C)c1 (stereo unspecified)', 'Endonuclease 8-like 1 (Homo sapiens) (UniProt Q96FI4)', 6.76),
  ('CCCCCN1C(=O)C2(COc3cc4c(cc32)OCO4)c2ccccc21 (stereo unspecified)', 'Endonuclease 8-like 1 (Homo sapiens) (UniProt Q96FI4)', 0.00926),
  ('CN1CC(=O)N=C1NC(=O)Nc1cccc(Cl)c1', 'Endonuclease 8-like 1 (Homo sapiens) (UniProt Q96FI4)', -2.58),
  ('NC(=O)[C@@H]1CCCN1C(=O)[C@H](Cc1c[nH]cn1)NC(=O)[C@@H]1CCC(=O)N1', 'Endonuclease 8-like 1 (Homo sapiens) (UniProt Q96FI4)', -9.1),
  ('CC(C)(C)c1ccc2c(c1)CC[C@H]2NC(=O)Nc1cccc2[nH]ncc12', 'Endonuclease 8-like 1 (Homo sapiens) (UniProt Q96FI4)', 7.86),
  ('C[C@H](NC(=O)Nc1cc2[nH]ncc2c(CO)n1)c1ccccn1', 'Endonuclease 8-like 1 (Homo sapiens) (UniProt Q96FI4)', -8.95),
  ('C[C@@H]1CN(c2nccc(Nc3ccc4c(c3)n(CCC(C)(C)O)c(=O)n4C)n2)C[C@H](C)C1(F)F', 'Endonuclease 8-like 1 (Homo sapiens) (UniProt Q96FI4)', -3.77),
  ('Clc1cccc(Cl)c1NC1=NCCN1', 'Endonuclease 8-like 1 (Homo sapiens) (UniProt Q96FI4)', -1.69),
  ('CCOC(=O)c1ccc(N2C(=O)C(O)=C(C(=O)c3ccc(OC)cc3)C2c2ccc(F)cc2)cc1 (stereo unspecified)', 'Endonuclease 8-like 1 (Homo sapiens) (UniProt Q96FI4)', 11.9),
  ('CN[C@@H]1Cc2cccc3[nH]c(=O)n(c23)C1', 'Endonuclease 8-like 1 (Homo sapiens) (UniProt Q96FI4)', -2.21),
  ('O=C(N[C@H]1CN2CCC1CC2)c1ccc(Cl)cc1', 'Endonuclease 8-like 1 (Homo sapiens) (UniProt Q96FI4)', 1.79),
  ('CN(C)CC[C@@H](c1ccc(Cl)cc1)c1ccccn1', 'Endonuclease 8-like 1 (Homo sapiens) (UniProt Q96FI4)', -2.28),
  ('CO[C@@H](C)c1c(Nc2ccc([C@@H](N(C)C(=O)C3CCS(=O)(=O)CC3)C(F)(F)F)cc2)cnc2cc(Cl)nn12', 'Endonuclease 8-like 1 (Homo sapiens) (UniProt Q96FI4)', -6.35),
  ('CCOC(=O)c1ncn2c1[C@@H]1CCCN1C(=O)c1cc(OC)ccc1-2', 'Endonuclease 8-like 1 (Homo sapiens) (UniProt Q96FI4)', -2.51),
  ('O=C(NCCNCC(O)COc1ccc(O)cc1)N1CCOCC1 (stereo unspecified)', 'Endonuclease 8-like 1 (Homo sapiens) (UniProt Q96FI4)', 1.79),
  ('O=c1c2cccn2c2ccccc2n1CCCN1CCC(c2ccc(Cl)cc2)CC1', 'Endonuclease 8-like 1 (Homo sapiens) (UniProt Q96FI4)', 10.5),
  ('Clc1ccc(C2CC3CCC2N3)cn1 (stereo unspecified)', 'Endonuclease 8-like 1 (Homo sapiens) (UniProt Q96FI4)', -1.03),
  ('Cc1nccn1CC1CCc2c(c3ccccc3n2C)C1=O (stereo unspecified)', 'Endonuclease 8-like 1 (Homo sapiens) (UniProt Q96FI4)', 6.23),
  ('CCOc1ccc(-n2c([C@@H](C)N(Cc3cccnc3)C(=O)Cc3ccc(F)c(C(F)(F)F)c3)nc3ncccc3c2=O)cc1', 'Endonuclease 8-like 1 (Homo sapiens) (UniProt Q96FI4)', 6.83),
  ('CC(Cc1ccc(O)c(O)c1)C(C)Cc1ccc(O)c(O)c1 (stereo unspecified)', 'Endonuclease 8-like 1 (Homo sapiens) (UniProt Q96FI4)', 12.4),
  ('C[C@@H]1CCc2ncc(F)cc2[C@H]2CCCN2c2ccn3ncc(c3n2)C(=O)N1', 'Endonuclease 8-like 1 (Homo sapiens) (UniProt Q96FI4)', 2.25),
  ('Nc1nc(NCc2ccccc2)nc(-c2ccccc2CO)n1', 'Endonuclease 8-like 1 (Homo sapiens) (UniProt Q96FI4)', -7.11),
  ('CN1CCN2c3ccccc3Cc3ccccc3C2C1 (stereo unspecified)', 'Endonuclease 8-like 1 (Homo sapiens) (UniProt Q96FI4)', -1.32),
  ('CC(C)C[C@H](NC(=O)N1CCCCCC1)C(=O)N[C@H](Cc1cn(C)c2ccccc12)C(=O)N[C@H](Cc1ccccn1)C(=O)O', 'Endonuclease 8-like 1 (Homo sapiens) (UniProt Q96FI4)', -0.0556);
